biological target: SpRvs167; assay: SPOT peptide array binding signal intensity (averaged, normalized) (arbitrary units (background-subtracted, floor 0; scale differs between SH3 domains)); higher = stronger binding of the SH3 domain to the peptide
MEASURED QUANTITY: SPOT peptide array binding signal intensity

I'm hoping you can list SPOT peptide array binding signal intensity for every binder here, please.
1. GDHPKGPPPPPPPDE
2. DKKTKPTPPPKPSHL
3. MARRRLPDRPPNGIG
4. GSKSGPPPRPKKPST
5. MTKTPETSPPKRPMG
6. ERPKRRAPPPVPKKP
7. PPIPNAPLSPAPAVP

Out:
1. 9
2. 33.3
3. 1670
4. ≤ 0
5. 18.5
6. 175
7. ≤ 0
